Target: 17β-hydroxysteroid dehydrogenase type 2 (17β-HSD type 2) (Homo sapiens, UniProt P37059)
Construct: expressed in transfected cells; host or cells: MCF-7
Sequence (P37059 1-387): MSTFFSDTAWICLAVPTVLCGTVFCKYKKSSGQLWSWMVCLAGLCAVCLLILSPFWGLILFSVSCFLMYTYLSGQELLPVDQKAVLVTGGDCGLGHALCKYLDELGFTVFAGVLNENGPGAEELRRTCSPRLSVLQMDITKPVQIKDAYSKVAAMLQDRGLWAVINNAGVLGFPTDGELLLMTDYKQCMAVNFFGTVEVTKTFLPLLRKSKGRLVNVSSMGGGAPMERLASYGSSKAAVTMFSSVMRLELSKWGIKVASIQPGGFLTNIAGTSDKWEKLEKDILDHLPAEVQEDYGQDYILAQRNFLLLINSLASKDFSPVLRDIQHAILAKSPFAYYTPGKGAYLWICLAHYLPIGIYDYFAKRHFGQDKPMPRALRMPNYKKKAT
Assay: Inhibition of 17β-HSD type 2 in MCF-7 cells stably expressing the isoenzyme (tritium labeled estradiol conversion, HPLC)
Type: cell-based
Settings: MCF7; 1 μM test compound; MCF-7 cells expressing 17β-HSD type 2; 2 nM tritium labeled estradiol; read-out: % Inhibition HSD2 1 μM
Measured Parameter: inhibition at 1 µM (%)

The following molecules have reported results that may help.
COc1cc(-c2nc3sc4c(OC)cccc4c3c(=O)n2CC(C)C)cc(OC)c1OC [No. 136]; 23.2
COc1cc(-c2nc3sc4c(c3c(=O)n2Cc2ccccc2)CCC(Br)C4=O)c(Br)c(OC)c1OC (stereo not shown) [No. 47]; 31.9
CCSC1=C(C=O)CCc2c1sc1nc(-c3cc(OC)c(OC)c(OC)c3)n(Cc3ccccc3)c(=O)c21 [No. 6]; 3.8
O=c1c2c3c(sc2nc(-c2cc(O)c(O)c(O)c2)n1-c1ccccc1)CCCC3 [No. 43]; 18
CCC(C)Cn1c(-c2cc(OC)c(OC)c(OC)c2)nc2sc3c(O)cccc3c2c1=O (stereo not shown) [No. 129]; 23.9

[A] COc1ccc(-c2nc3sc4c(c3c(=O)n2-c2ccccc2)CCCC4)cc1 [No. 22]
[B] COc1cc(-c2nc3sc4c(c3c(=O)n2Cc2ccccc2)CCC(Br)(Br)C4=O)c(Br)c(OC)c1OC [No. 48]
In terms of reported inhibition at 1 µM, does A or B have the smaller number? Mark your answer with the label of the selected entry.
B

====

target: 17β-hydroxysteroid dehydrogenase type 2 (17β-HSD type 2) (Homo sapiens, UniProt P37059); construct: expressed in transfected cells; host or cells: MCF-7; assay: Inhibition of 17β-HSD type 2 in MCF-7 cells stably expressing the isoenzyme (tritium labeled estradiol conversion, HPLC); assay type: cell-based; settings: MCF7; 1 μM test compound; MCF-7 cells expressing 17β-HSD type 2; 2 nM tritium labeled estradiol; read-out: % Inhibition HSD2 1 μM
Measured Parameter: inhibition at 1 µM (%)

COc1cc(-c2nc3sc4c(c3c(=O)n2Cc2ccccc2)CCCC4=O)cc(OC)c1OC [No. 2]; 1.5
COc1cc(-c2nc3sc4c(Oc5ccccc5)c(C=O)ccc4c3c(=O)n2Cc2ccccc2)cc(OC)c1OC [No. 5]; -0.9
COc1cc(-c2nc3sc4c(c3c(=O)n2Cc2ccccc2)C(C)CC(Br)C4=O)c(Br)c(OC)c1OC (stereo not shown) [No. 685]; 22.7
CCCc1nc2sc3c(c2c(=O)n1Cc1ccco1)CCCC3 [No. 101]; 18

[a] CCCCn1c(-c2ccccc2OC)nc2sc3c(O)cccc3c2c1=O [No. 633]
[b] COc1cc(-c2nc3sc4c(c3c(=O)n2CC(C)C)C(Br)CCC4=O)cc(OC)c1OC (stereo not shown) [No. 135]
[c] COc1ccc(-c2nc3sc4c(c3c(=O)n2Cc2ccccc2)CCCC4)cc1 [No. 12]
[d] COC(=O)Cc1nc2sc3c(c2c(=O)n1Cc1ccccc1)CCCC3 [No. 26]
Arrange these compounds by their inhibition at 1 µM, starting with the largest number. The labels, placed in the requested order, form the answer.
a, b, c, d
